system: A549; test: Inhibition of IL-1-beta-stimulated PGE2 production in human A549 cells in presence of 50% fetal bovine serum
For each entry below, report its pIC50 value.
As a rule, pIC50 stands for the negative log10 of the concentration, concentration in M.

Request: Using the record for `N#Cc1ccccc1-c1nc2c3ccccc3c3ccccc3c2[nH]1` , report its pIC50.
Result: 5.52

Request: Using the record for `N#Cc1cccc(C#N)c1-c1nc2c3ccccc3c3ccccc3c2[nH]1` , report its pIC50.
Result: 6.48

Request: Using the record for `Fc1cccc(Cl)c1-c1nc2c3ccccc3c3ccccc3c2[nH]1` , report its pIC50.
Result: 5.66

Request: Using the record for `O=c1[nH]ccc2c3[nH]c(-c4c(Cl)cccc4Cl)nc3c3ccc(F)cc3c12` , report its pIC50.
Result: 5.01

Request: Using the record for `O=c1[nH]ccc2c3[nH]c(-c4c(F)cccc4Cl)nc3c3ccc(F)cc3c12` , report its pIC50.
Result: 5.80

Request: Using the record for `O=c1[nH]ccc2c3[nH]c(-c4ccccc4Br)nc3c3ccc(F)cc3c12` , report its pIC50.
Result: 6.19

Request: Using the record for `N#Cc1cccc(Cl)c1-c1nc2c3ccccc3c3ccccc3c2[nH]1` , report its pIC50.
Result: 6.12

Request: Using the record for `N#Cc1cccc(Br)c1-c1nc2c3ccccc3c3ccccc3c2[nH]1` , report its pIC50.
Result: 6.24

Request: Using the record for `O=c1[nH]ccc2c3[nH]c(-c4cccc(Cl)c4)nc3c3ccc(F)cc3c12` , report its pIC50.
Result: 5.28

Request: Using the record for `Brc1ccccc1-c1nc2c3ccccc3c3ccccc3c2[nH]1` , report its pIC50.
Result: 5.80

Request: Using the record for `Fc1cccc(Br)c1-c1nc2c3ccccc3c3ccccc3c2[nH]1` , report its pIC50.
Result: 5.80

Request: Using the record for `O=c1[nH]ccc2c3[nH]c(-c4ccccc4Cl)nc3c3ccc(F)cc3c12` , report its pIC50.
Result: 6.25

The reported numbers originate from ChEMBL document CHEMBL1142217.
